# run description: Plasma concentrations of A1 and A2 after oral administration, rats
# Assay type: in vivo
# conditions used: rat, after CNCC 500 mg/m^2 p.o., 45 MIN, n = 5
We begin with a simple list: items and their reported concentration at 0.75 h.
Note: unit µM is implicit; provide only the numeric part.

In [3]: df
Out[3]:
                                   compound        reported_endpoint  unit_abbrev  measured_result
0  C[S+]([O-])CCNC(=O)N(CCCl)N=O (centres unmarked) [Compound A2]  concentration at 0.75 h           µM              7.2

Now, please, on to the next compound.
Lookup: Give me measured concentration at 0.75 h, please, for this compound: C[S+]([O-])CCN(N=O)C(=O)NCCCl (centres unmarked) [Compound A1]
Found: 14.8

Reference source: patent US5001158A
